Record form. Attribute: T/C. Fill in for each entry.
tested on: BDF1 mice, Lewis lung carcinoma iv, survival T/C; assay: NCI In Vivo Anticancer Drug Screen. Data for tumor model Lewis Lung Carcinoma (intravenous) in B6D2F1 (BDF1) mice; settings: endpoint: median survival time; dose: 25.0 mg/kg/injection; schedule: Q01DX009 (ip); vehicle: saline; higher = longer survival
Inconclusive results and toxic doses are left out.

Given the entry O=c1[nH]c(=O)c2nc(-c3cccnc3)cnc2[nH]1 , report its measured T/C. 101 % of control

// returns reported T/C for input CCCNc1ncnc2c1cnn2C 105 % of control

Look up T/C for this compound: CC[As](=O)(O)CC 105 % of control

Any idea what its T/C is? The compound is COc1cc(NCCCCCCCNC(C)C)c2nccc(C)c2c1 108 % of control

What T/C value was documented for this compound, COc1cc2cc3cc4cc(OC)c(OC)cc4c(C)[n+]3cc2cc1OC (tested in a mixture with another compound) ? 107 % of control

Recorded T/C for CCC1OCCN1C(C)C (stereo unspecified) , please? 95 % of control

---

Exercise: for every item that follows, state its recorded T/C.
test system: BDF1 mice, Lewis lung carcinoma iv, survival T/C; experiment: NCI In Vivo Anticancer Drug Screen. Data for tumor model Lewis Lung Carcinoma (intravenous) in B6D2F1 (BDF1) mice; conditions: endpoint: median survival time; dose: 25.0 mg/kg/injection; schedule: Q01DX009 (ip); vehicle: saline with Tween-80; higher = longer survival
Toxic doses and inconclusive results are not listed.

Tell me the measured T/C of CC1(C)OC1CS(=O)c1ccccc1 (stereo unspecified) , please. 99 % of control

Recorded T/C of CC(=O)CC(C)=O.CC(=O)CC(C)=O.O=N[O-].O=N[O-].[Co] , please. 96 % of control

For ClC1(c2ccccc2)c2ccc(Br)cc2-c2cc(Br)ccc21 , what is its reported T/C? 102 % of control

May I ask what T/C has been recorded for Cc1ccc(S(=O)(=O)NC(=O)OC23COCN2COC3)cc1 ? 105 % of control

Please give the measured T/C for this compound: C[C@]12CC[C@@H]3c4ccc(OC(=O)Cc5ccc(N(CCCl)CCCl)cc5)cc4CC[C@H]3[C@@H]1CC[C@@H]2OC(=O)Cc1ccc(N(CCCl)CCCl)cc1 104 % of control

Reported T/C, compound OCC1OC(n2cnc3cc(Cl)c(Cl)cc32)C(O)C1O (stereo unspecified) : ____ 110 % of control

Which T/C is listed for O=C1NC(O)c2ccccc2O1 (stereo unspecified) ? 103 % of control

Query: T/C; subject: Clc1ccc2nnnn2n1 115 % of control

Dear colleague, I am looking for the recorded T/C of the following compound: C[CH2][Ge]([CH2]C)[CH2]C.C[CH2][Ge]([CH2]C)[CH2]C.C[CH2][Ge]([CH2]C)[O][Ge]([CH2]C)[CH2]C 103 % of control

What measured T/C goes with COc1ccc(C(=O)c2no[n+]([O-])c2C(=O)c2ccc(OC)cc2)cc1 ? 102 % of control

Need T/C, item CC(C)n1cnc2c(Cl)ncnc21 113 % of control

// query T/C value for entry CCCC(=O)Oc1ccc(/C=N/NC(N)=S)nc1 109 % of control

// T/C lookup, key: COc1cc(Cl)ccc1C 107 % of control

Which measured T/C value corresponds to CCCCOCN(COCCCC)C(C)Cc1ccccc1 (stereo unspecified) ? 96 % of control

Please look up its T/C: O=C(Nc1nncs1)c1cccs1 104 % of control

Which T/C value belongs to O=C1N(Cl)C(=O)C(c2ccc(Cl)cc2)(c2ccc(Cl)cc2)N1Cl ? 96 % of control

---

tested on: BDF1 mice, Lewis lung carcinoma iv, survival T/C; test: NCI In Vivo Anticancer Drug Screen. Data for tumor model Lewis Lung Carcinoma (intravenous) in B6D2F1 (BDF1) mice; conditions: endpoint: median survival time; dose: 50.0 mg/kg/injection; schedule: Q01DX009 (ip); vehicle: saline with Tween-80
Toxic doses and inconclusive results are not listed. How the source made its calls: active means survival T/C of 150% or more; inactive means T/C below 125% in these data.
Assign a class; possible classes are active, inactive

What call does the record list for Cc1oc2c(C)c3oc(=O)cc(C)c3cc2c1CCl ? inactive

Test call, this compound: CC12CC(C(=O)O)C3(O)CC(C)(C1)CC(C)(C2)C3 (stereo not given) (tested in a mixture with another compound) inactive

I would be grateful if you could indicate the recorded call for C[CH2][Ge]([CH2]C)[CH2]C.C[CH2][Ge]([CH2]C)[CH2]C.C[CH2][Ge]([CH2]C)[O][Ge]([CH2]C)[CH2]C . inactive

Could you please tell me the result logged for C/C(=N\NC(N)=O)c1cccc(/C(C)=N/NC(N)=O)n1 in this assay? inactive

Name the outcome recorded for CN(C)CCNc1ccc([N+](=O)[O-])c2sc3ccccc3c(=O)c12 in the assay. active

---

system: BDF1 mice, Lewis lung carcinoma iv, survival T/C; experiment: NCI In Vivo Anticancer Drug Screen. Data for tumor model Lewis Lung Carcinoma (intravenous) in B6D2F1 (BDF1) mice; settings: endpoint: median survival time; dose: 50.0 mg/kg/injection; schedule: Q01DX009 (ip); vehicle: saline; higher = longer survival
Toxic doses and inconclusive results are not listed.
Kindly state T/C for each of the entries shown.

Which T/C is listed for N=C(N)SCc1cccc2c(=O)cc(-c3ccccc3)oc12 ? 94 % of control

For the compound NC(N)=NOCC[C@@H](N)C(=O)O , what T/C is on record? 99 % of control

# T/C lookup, item CCC(C)n1ncc2c(N(C)C)ncnc21 (configuration not stated) 98 % of control

Name the recorded T/C for CC(=O)OCC1OC(n2ccc(N)nc2=O)C(OC(C)=O)C1OC(C)=O (configuration not stated) . 109 % of control

GET /values?readout=T/C&item= C[C@]12CC[C@H]3[C@@H](CC[C@]4(O)C[C@@H](O)CC[C@]34C=O)[C@@]1(O)CC[C@@H]2C1=CC(=O)OC1 108 % of control

Any idea what its T/C is? The compound is NC(=O)C(F)C(N)C(=O)O (configuration not stated) 100 % of control

Please report the recorded T/C for O=C1CN(CN2CCOCC2)C(=O)CN1CN1CCOCC1 . 95 % of control

---

tested on: BDF1 mice, Lewis lung carcinoma iv, survival T/C; assay: NCI In Vivo Anticancer Drug Screen. Data for tumor model Lewis Lung Carcinoma (intravenous) in B6D2F1 (BDF1) mice; settings: endpoint: median survival time; dose: 50.0 mg/kg/injection; schedule: Q01DX009 (ip); vehicle: saline with Tween-80; higher = longer survival
Inconclusive results and toxic doses are left out.
endpoint name: T/C

Consider the compound C(COCCOCC1CO1)OCCOCC1CO1 (stereo unspecified) and give its measured T/C. 104 % of control

Find the recorded T/C belonging to CC(Oc1ccccc1-c1ccccc1)C(=O)N(C)C (stereo unspecified) and report it. 113 % of control

Endpoint output: T/C of ClCc1ccc2ccccc2n1 . Value? 92 % of control

Data request, read-out T/C, for O=CN(SSN(C=O)C1CCCCC1)C1CCCCC1 99 % of control

For the compound N#Cc1nc(C#N)c(Sc2ccccc2)c(Sc2ccccc2)c1Sc1ccccc1 , what T/C is on record? 98 % of control

Endpoint output: T/C of Cc1ccc(S(=O)(=O)NC(=O)OC23COCN2COC3)cc1 . Value? 96 % of control

Consider the compound CN(C)c1nc(N(C)C)nc(N(C)C)n1 and give its measured T/C. 99 % of control

What does the record list as T/C for CCCCCCCCCCCCOP(N)(=O)OCCCCCCCCCCCC ? 93 % of control

Quick one: T/C for CC(=O)CC(C)=O.CC(=O)CC(C)=O.O=N[O-].O=N[O-].[Co] ? 107 % of control

Which T/C value belongs to COC(=O)C(F)C(Br)C(=O)OC (stereo unspecified) ? 104 % of control

Query: T/C; subject: N#CCCSC(=S)C1CCCC1=N (stereo unspecified) 106 % of control

---

Give T/C for every item shown.
system: BDF1 mice, Lewis lung carcinoma iv, survival T/C; experiment: NCI In Vivo Anticancer Drug Screen. Data for tumor model Lewis Lung Carcinoma (intravenous) in B6D2F1 (BDF1) mice; conditions: endpoint: median survival time; dose: 50.0 mg/kg/injection; schedule: Q01DX009 (ip); vehicle: saline; higher = longer survival
Inconclusive results and toxic doses are left out.

Looking for the measured T/C of COC(=O)CC(N)C(=O)O (stereo not drawn) , can you help? 95 % of control

# input compound: CCCNc1ncnc2c1cnn2C ; wanted: its T/C 109 % of control

I'd like to know its T/C. The compound in question is O=c1[nH]c(=O)c2nc(-c3cccnc3)cnc2[nH]1 108 % of control

---

system: BDF1 mice, Lewis lung carcinoma iv, survival T/C; test: NCI In Vivo Anticancer Drug Screen. Data for tumor model Lewis Lung Carcinoma (intravenous) in B6D2F1 (BDF1) mice; conditions: endpoint: median survival time; dose: 50.0 mg/kg/injection; schedule: Q01DX009 (ip); vehicle: saline with Tween-80; higher = longer survival
Toxic doses and inconclusive results are not listed.
Provide the recorded T/C for the entries that follow.

Form field: T/C recorded for CC1(c2ccc(Cl)cc2)OC(=O)C(=Cc2ccc([N+](=O)[O-])s2)C(=O)O1 (configuration not stated) with BDF1 mice, Lewis lung carcinoma iv, survival T/C (enter value) 99 % of control

Query T/C on BDF1 mice, Lewis lung carcinoma iv, survival T/C for O=[n+]1c2c(n([O-])c3ccccc31)-c1cccc3cccc-2c13 104 % of control

Test system BDF1 mice, Lewis lung carcinoma iv, survival T/C; read-out T/C; what value for Clc1ccc2nnnn2n1 ? 104 % of control

Value wanted: T/C (BDF1 mice, Lewis lung carcinoma iv, survival T/C) of entry CCCCOCN(COCCCC)C(C)Cc1ccccc1 (configuration not stated) 95 % of control

Please provide the recorded T/C for CCO/C=C1\SC(=S)N(c2ccccc2C)C1=O , tested on BDF1 mice, Lewis lung carcinoma iv, survival T/C. 100 % of control

# value lookup — system BDF1 mice, Lewis lung carcinoma iv, survival T/C, readout T/C, item Nc1nc(N)c2c(Cl)c(CNc3ccc(Cl)c(Cl)c3)ccc2n1 98 % of control

For the record OC1CCCC2CCCNC12 (configuration not stated) , what value of T/C is listed for BDF1 mice, Lewis lung carcinoma iv, survival T/C? 99 % of control

Value wanted: T/C (BDF1 mice, Lewis lung carcinoma iv, survival T/C) of entry O=C1NC(O)c2ccccc2O1 (configuration not stated) 105 % of control

Observed T/C on BDF1 mice, Lewis lung carcinoma iv, survival T/C for O=C1C(Cl)=C(Cl)C(=O)C2=C1C1c3ccccc3C2c2ccccc21 , please. 103 % of control

Form field: T/C recorded for C[C@]12CC[C@@H]3c4ccc(OC(=O)Cc5ccc(N(CCCl)CCCl)cc5)cc4CC[C@H]3[C@@H]1CC[C@@H]2OC(=O)Cc1ccc(N(CCCl)CCCl)cc1 with BDF1 mice, Lewis lung carcinoma iv, survival T/C (enter value) 99 % of control

Checklist item: T/C tested on BDF1 mice, Lewis lung carcinoma iv, survival T/C, entry CCCCc1ccc2nc(NC(=O)OC)[nH]c2c1 , value? 102 % of control

Hello, I am looking for reported T/C with BDF1 mice, Lewis lung carcinoma iv, survival T/C for CCOC(=O)NC(N)=O . Could you help? 97 % of control
